Study Target: Cytochrome P450 1A2 (Homo sapiens, UniProt P05177)
Sequence (P05177 whole entry): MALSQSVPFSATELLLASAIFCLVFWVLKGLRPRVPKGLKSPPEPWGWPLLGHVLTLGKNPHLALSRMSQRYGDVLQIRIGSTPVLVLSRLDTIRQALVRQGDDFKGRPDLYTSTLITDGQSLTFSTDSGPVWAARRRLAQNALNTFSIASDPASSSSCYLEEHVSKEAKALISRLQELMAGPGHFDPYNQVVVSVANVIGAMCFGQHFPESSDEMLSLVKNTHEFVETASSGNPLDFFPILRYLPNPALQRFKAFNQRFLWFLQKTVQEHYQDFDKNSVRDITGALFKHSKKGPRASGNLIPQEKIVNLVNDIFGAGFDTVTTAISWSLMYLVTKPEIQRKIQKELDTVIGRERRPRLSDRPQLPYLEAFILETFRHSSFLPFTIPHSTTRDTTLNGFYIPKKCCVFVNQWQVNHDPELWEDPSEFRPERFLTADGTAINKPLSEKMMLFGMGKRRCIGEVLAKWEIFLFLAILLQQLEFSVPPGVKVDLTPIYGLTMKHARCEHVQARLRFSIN
Method: Time dependent inhibition of CYP1A2 in human liver microsomes at 10 uM using phenacetin substrate preincubated for 5 mins before NADPH addition and measured after 20 mins post NADPH addition
Type: ADME
Parameter Measured: TDI

// known answers, use as guide
{"Molecule Smiles": "CNc1cc(-c2csc(=O)[nH]2)cc(S(=O)(=O)NC2CCCC2)c1C", "TDI": "Not Active"}
{"Molecule Smiles": "Cc1c(N)cc(-c2csc(=O)[nH]2)cc1S(=O)(=O)NC1CCCC1", "TDI": "Not Active"}
{"Molecule Smiles": "O=C(Nc1cc(-c2csc(=O)[nH]2)cc(S(=O)(=O)NC2CCCC2)c1)C1CC1", "TDI": "Not Active"}
{"Molecule Smiles": "O=C(Nc1cc(-c2csc(=O)[nH]2)cc(S(=O)(=O)NC2CCCC2)c1)c1cccs1", "TDI": "Not Active"}

The measured TDI associated with COc1cc2c(cc1-c1c(C)noc1C)ncc1[nH]c(=O)n([C@H](C)c3ccccn3)c12 reads Not Active
